- Tested on: P30-OHK (B-Lymphoblastic Leukemia)
- measurement notes: Bliss excess, mean over the matrix (fraction); higher = more synergy;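 also: after 72 h of two-drug dosing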
We begin with a simple list: items and their reported Bliss excess.
API note: the answer field is a bare number with no unit suffix.

// worked examples, Bliss excess included
>  <molecule>
CN(C)CCCOc1ccc(-c2ccc3ncc4c(c3c2)n(C2CCOCC2)c(=O)n4C)cn1 [AZD0156] + C=CCn1c(=O)c2cnc(Nc3ccc(N4CCN(C)CC4)cc3)nc2n1-c1cccc(C(C)(C)O)n1 [AZD1775] (first compound max 1 µM, partner max 1 µM)

>  <Bliss excess>
0.0179

$$$$
>  <molecule>
COc1cccc(OCCCN)c1-c1cc(Nc2cnc(C#N)cn2)n[nH]1 [Prexasertib] + C[C@@H]1COCCN1C2=NC(=NC(=C2)C3(CC3)[S@](=N)(=O)C)C4=C5C=CNC5=NC=C4 [AZD6738] (first compound max 1 µM, 7x7, partner max 10 µM)

>  <Bliss excess>
-0.0333

$$$$
>  <molecule>
COc1cccc(OCCCN)c1-c1cc(Nc2cnc(C#N)cn2)n[nH]1 [Prexasertib] + C=CCn1c(=O)c2cnc(Nc3ccc(N4CCN(C)CC4)cc3)nc2n1-c1cccc(C(C)(C)O)n1 [AZD1775] (first compound max 1 µM, partner max 1 µM)

>  <Bliss excess>
0.0398

$$$$

Now for another entry.
Exercise: Name the reported Bliss excess value associated with the molecule C=CCn1c(=O)c2cnc(Nc3ccc(N4CCN(C)CC4)cc3)nc2n1-c1cccc(C(C)(C)O)n1 [AZD1775] + C[C@@H]1COCCN1C2=NC(=NC(=C2)C3(CC3)[S@](=N)(=O)C)C4=C5C=CNC5=NC=C4 [AZD6738] (first compound max 1 µM, partner max 10 µM)
Solution: 0.0928

----------
- Test system: P32-ISH (Burkitt's Lymphoma)
- measurement notes: Bliss excess, mean over the matrix (fraction); higher = more synergy
measurement type: Bliss excess

Below, each entry is followed by its recorded Bliss excess result.
>  <molecule>
Cc1c2c(nn1C)CSCc1cc(n(C)n1)CSc1cc(c3ccccc3c1)OCCCc1c(C(=O)O)n(C)c3c-2c(Cl)ccc13 [AZD5991] + CCN(CCO)CCCOc1ccc2c(Nc3cc(CC(=O)Nc4cccc(F)c4)[nH]n3)ncnc2c1 [AZD2811] (first compound max 1 µM, 7x7, partner max 1 µM)

>  <Bliss excess>
-0.0194

$$$$
>  <molecule>
CC1(C)CCC(CN2CCN(c3ccc(C(=O)NS(=O)(=O)c4ccc(NCC5CCOCC5)c([N+](=O)[O-])c4)c(Oc4cnc5[nH]ccc5c4)c3)CC2)=C(c2ccc(Cl)cc2)C1 [Venetoclax] + C1CN(CCC1(C(=O)N[C@@H](CCO)C2=CC=C(C=C2)Cl)N)C3=NC=NC4=C3C=CN4 [Capivasertib] (first compound max 1 µM, 7x7, partner max 3 µM)

>  <Bliss excess>
-0.0094

$$$$

Let us examine a further case.
Exercise: I'd like to know its Bliss excess. The molecule in question is CCc1c2c(nc3ccc(O)cc13)-c1cc3c(c(=O)n1C2)COC(=O)[C@]3(O)CC [SN-38] + O=C(c1cc(Cc2n[nH]c(=O)c3ccccc23)ccc1F)N1CCN(C(=O)C2CC2)CC1 [Olaparib] (first compound max 0.3 µM, 7x7, partner max 10 µM)
Solution: 0.0645

----------
- System: T84 (Colorectal Carcinoma)
- measurement notes: Bliss excess, mean over the matrix (fraction); higher = more synergy
measurement type: Bliss excess
Give your answer as a number; write no unit.

Check out these entries, answers already filled in.
>  <compound>
C=CCn1c(=O)c2cnc(Nc3ccc(N4CCN(C)CC4)cc3)nc2n1-c1cccc(C(C)(C)O)n1 [AZD1775] + Nc1ccn([C@@H]2O[C@H](CO)[C@@H](O)C2(F)F)c(=O)n1 [Gemcitabine] (first compound max 1 µM, partner max 0.3 µM)

>  <Bliss excess>
0.0564

$$$$
>  <compound>
CC1(C)CCC(CN2CCN(c3ccc(C(=O)NS(=O)(=O)c4ccc(NCC5CCOCC5)c([N+](=O)[O-])c4)c(Oc4cnc5[nH]ccc5c4)c3)CC2)=C(c2ccc(Cl)cc2)C1 [Venetoclax] + C1CN(CCC1(C(=O)N[C@@H](CCO)C2=CC=C(C=C2)Cl)N)C3=NC=NC4=C3C=CN4 [Capivasertib] (first compound max 1 µM, 7x7, partner max 3 µM)

>  <Bliss excess>
-0.0518

$$$$

Continue with the next compound.
Exercise: Any idea what its Bliss excess is? The compound is COc1cc2c(cc1OCCCCCOc1cc3c(cc1OC)C(=O)N1C=C(C)C[C@H]1C=N3)N=C[C@@H]1CC(C)=CN1C2=O [SG3199] + O=C(c1cc(Cc2n[nH]c(=O)c3ccccc23)ccc1F)N1CCN(C(=O)C2CC2)CC1 [Olaparib] (first compound max 0.001 µM, 7x7, partner max 10 µM)
Solution: -0.0279
